These measurements were taken from patent US20240327393A1.

- System: HT-1080 (ATCC, CCL-121) cells
- Protocol: HT-1080 cell viability assay with ferroptosis inducer RSL3 (Cell Titer-Glo)
- Type: cell-based
- Measurement Parameters: Homo sapiens; HT-1080 cells treated with RSL3; 3-fold, 10-point dilution, 1.1 μM highest concentration; Table 2; read-out: EC50 (nM), ferroptosis inhibitory activity
EC50 by entry:

| Molecule | Tested System | EC50 |
| --- | --- | --- |
| CCN1Cc2ccc(Nc3ccc(N4CCC(F)(F)CC4)cc3)cc2C1 [Compound 167] | HT-1080 (ATCC, CCL-121) cells | 0.1 to 100 nM |
| CN1C(=O)COc2cc(Nc3ccc(N4CC5(CCC5)C4)cc3)ccc21 [Compound 21] | HT-1080 (ATCC, CCL-121) cells | 0.1 to 100 nM |
| COCCOc1ccc(Nc2ccc3c(c2)n(C)c(=O)n3C)cc1 [Compound 318] | HT-1080 (ATCC, CCL-121) cells | 0.1 to 100 nM |
| CC1CCN(c2ncc(Nc3ccc4c(c3)n(C)c(=O)n4C)cn2)CC1 [Compound 376] | HT-1080 (ATCC, CCL-121) cells | 0.1 to 100 nM |

Now examine the next entry.
Query: State its EC50: Cn1c(=O)n(C)c2cc(Nc3ccc(CN4CCCC4)cc3)ccc21 [Compound 295]
Response: 1000 to 10000 nM

----------
- Test system: HT-1080 (ATCC, CCL-121) cells
- Protocol: HT-1080 cell viability assay with ferroptosis inducer RSL3 (Cell Titer-Glo)
- Assay type: cell-based
- Measurement Parameters: Homo sapiens; HT-1080 cells treated with RSL3; 3-fold, 10-point dilution, 1.1 μM highest concentration; Table 3; read-out: EC50 (nM), ferroptosis inhibitory activity
Measurement Label: EC50

Reference set, count: 5
| Compound | EC50 |
| --- | --- |
| COc1cc(Nc2cc(C)c3c(c2)OCC(=O)N3)c(C)cc1N1CCC(C(F)(F)F)CC1 | 0.1 to 100 nM |
| O=C1COc2cc(Nc3ccc(N4CCC(C(F)(F)F)CC4)cc3)cc(F)c2N1 | 0.1 to 100 nM |
| Cc1cc(N2CCC(C(F)(F)F)CC2)ccc1Nc1ccc2[nH]c(=O)oc2c1 | 0.1 to 100 nM |
| Cc1cc(Nc2ccc3c(c2)OCC(=O)N3CCO)ccc1N1CC(C)OC(C)C1 (centres unmarked) | 0.1 to 100 nM |
| Cc1cc(N2CCC(C(F)(F)F)CC2)ccc1Nc1ccc2c(c1)OC(C)C(=O)N2 (centres unmarked) | 0.1 to 100 nM |

Query: GET EC50 where system = HT-1080 (ATCC, CCL-121) cells and item = COc1cc(Nc2cnc3c(c2)OCC(=O)N3)ccc1N1CCC(C(F)(F)F)CC1
Response: 0.1 to 100 nM

Query: Find the measured EC50 of Cc1cc(N2CCC(C(F)(F)F)CC2)ncc1Nc1ccc2c(c1)OCC(=O)N2 with HT-1080 (ATCC, CCL-121) cells as test system.
Response: 0.1 to 100 nM

Query: Report EC50 under test system HT-1080 (ATCC, CCL-121) cells for Cc1cc(N2CCC(C(F)(F)F)CC2)ccc1Nc1ccc2c(c1)OC(CO)C(=O)N2 (centres unmarked) .
Response: 0.1 to 100 nM
